- Tested on: johnsongrass
- procedure text: Test C pre-/postemergence herbicide test
- Type: in vivo, Sorghum halepense
- test parameters: Postemergence; 250 g ai/ha; scale 0 to 100 (0 no effect, 100 complete control)
// Plant response rating, Johnsongrass lookup, one value per entry
Just the number, please, no unit after it.

compound	value type	value observed
Cc1c(F)cccc1NC(=O)C1C(=O)NCC1c1ccc(F)c(F)c1 (racemic) [Compound 106]	Plant response rating, Johnsongrass	0
O=C1NCC(c2ccc(C(F)(F)F)cc2)C1C(=O)Nc1cccc(F)c1F (racemic) [Compound 202]	Plant response rating, Johnsongrass	25
CN1CC(c2cccc(C(F)(F)F)c2)C(C(=O)Nc2cccc(F)c2F)C1=O (stereo not drawn) [Compound 305]	Plant response rating, Johnsongrass	20
O=C1NCC(c2ccc(C(F)(F)F)cc2)C1C(=O)Nc1cccc(F)c1F (stereo not drawn) [Compound 80]	Plant response rating, Johnsongrass	10
CN1CC(c2ccc(C(F)(F)F)cc2)C(C(=O)Nc2cccc(F)c2F)C1=O (stereo not drawn) [Compound 306]	Plant response rating, Johnsongrass	0

Exercise: Form field: Plant response rating, Johnsongrass recorded for Cc1ccccc1NC(=O)C1C(=O)NCC1c1cccc(C(F)(F)F)c1 (racemic) [Compound 109] with johnsongrass (enter value)
Solution: 0
